The origin of these recorded values is patent EP4717706A1.

Biological target: VLP2 (virus-like particles, capsid protein particles of AAV serotype 2) (AAV serotype 2 (AAV2)) (UniProt P03135)
Sequence (P03135 whole entry): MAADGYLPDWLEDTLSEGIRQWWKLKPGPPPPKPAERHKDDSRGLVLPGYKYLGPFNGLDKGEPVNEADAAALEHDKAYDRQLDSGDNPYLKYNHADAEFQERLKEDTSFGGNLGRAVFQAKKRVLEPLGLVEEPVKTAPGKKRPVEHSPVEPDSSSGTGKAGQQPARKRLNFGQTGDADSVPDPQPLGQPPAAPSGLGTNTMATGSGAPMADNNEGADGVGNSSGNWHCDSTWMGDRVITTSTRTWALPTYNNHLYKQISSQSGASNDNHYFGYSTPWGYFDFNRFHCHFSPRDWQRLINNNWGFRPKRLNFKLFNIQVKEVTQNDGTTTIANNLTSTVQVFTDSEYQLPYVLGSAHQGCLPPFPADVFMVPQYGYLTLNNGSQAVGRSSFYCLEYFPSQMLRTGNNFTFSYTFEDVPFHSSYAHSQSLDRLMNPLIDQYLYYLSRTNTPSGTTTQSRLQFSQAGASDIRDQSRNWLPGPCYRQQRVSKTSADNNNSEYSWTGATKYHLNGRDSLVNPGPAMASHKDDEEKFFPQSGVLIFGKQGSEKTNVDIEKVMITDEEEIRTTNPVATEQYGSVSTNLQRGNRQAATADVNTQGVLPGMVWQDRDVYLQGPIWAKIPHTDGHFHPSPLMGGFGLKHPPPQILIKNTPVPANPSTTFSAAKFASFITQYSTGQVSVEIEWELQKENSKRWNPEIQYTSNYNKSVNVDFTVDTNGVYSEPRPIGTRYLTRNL
Experiment: ELISA on immobilised VLP2 (culture supernatant, anti-His detection); A450 after 1:1 0.5 M NaOH, 30 min, 30°C divided by A450 untreated
Quick reference for Remaining activity [%] among some binders

>  <binder>
AVR21 with L376P, P402S (receptor) MGSAGESDQITLPKHEAQLNVYVLLVPPKGEASTYDWQLITHPRDYSGEMEGEHSQILKLSNLTPGPYEYRAVVEGQNAHSEGYVNVTVEPESRKNRPPIAIVSPQFQEISLPTTSTVIDGSQSTDDDKIVQYHWEELKGPLREEKISEDTAILKLSQLVPGNYTFRLTVVDTDGATDSTTADLTVNKAVDHHHHHH

>  <unit tag>
%

>  <Remaining activity [%]>
35.1

$$$$
>  <binder>
AVR21 with E(V)335A (receptor) MGSAGESDQITLPKHEAQLNVYVLLAPPKGEASTYDWQLITHPRDYSGEMEGEHSQILKLSNLTPGLYEYRAVVEGQNAHSEGYVNVTVEPEPRKNRPPIAIVSPQFQEISLPTTSTVIDGSQSTDDDKIVQYHWEELKGPLREEKISEDTAILKLSQLVPGNYTFRLTVVDTDGATDSTTADLTVNKAVDHHHHHH

>  <unit tag>
%

>  <Remaining activity [%]>
35.8

$$$$
>  <binder>
AVR21 with T343A, K(N)371D (receptor) MGSAGESDQITLPKHEAQLNVYVLLVPPKGEASAYDWQLITHPRDYSGEMEGEHSQILKLSDLTPGLYEYRAVVEGQNAHSEGYVNVTVEPEPRKNRPPIAIVSPQFQEISLPTTSTVIDGSQSTDDDKIVQYHWEELKGPLREEKISEDTAILKLSQLVPGNYTFRLTVVDTDGATDSTTADLTVNKAVDHHHHHH

>  <unit tag>
%

>  <Remaining activity [%]>
40.5

$$$$
